These data points were gathered from patent US8426429B2.

- measurementTarget: β-secretase (BACE) (Homo sapiens, UniProt P56817)
- Construct: purchased Panvera
- Sequence (P56817 46-501): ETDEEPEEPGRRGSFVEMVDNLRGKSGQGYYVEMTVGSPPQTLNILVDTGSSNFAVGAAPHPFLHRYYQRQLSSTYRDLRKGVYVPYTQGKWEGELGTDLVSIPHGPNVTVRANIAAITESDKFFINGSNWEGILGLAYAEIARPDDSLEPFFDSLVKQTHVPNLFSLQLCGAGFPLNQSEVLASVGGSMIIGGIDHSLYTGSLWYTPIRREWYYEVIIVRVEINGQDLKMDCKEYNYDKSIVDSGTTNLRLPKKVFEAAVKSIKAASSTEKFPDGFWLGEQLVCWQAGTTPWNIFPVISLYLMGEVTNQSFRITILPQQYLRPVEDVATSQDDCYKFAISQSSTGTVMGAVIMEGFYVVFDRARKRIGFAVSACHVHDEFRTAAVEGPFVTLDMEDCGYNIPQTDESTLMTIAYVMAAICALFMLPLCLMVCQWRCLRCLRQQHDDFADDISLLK
- testMethodNotes: BACE FS1 % Inhibition Assay
- Type: biochemical
- studyConditions: 3 μM test compound
# if value of % Inhibition (FS) reaches 60%, tag Criterion met; if it stays below, tag Criterion not met

| compound | labelValue |
| --- | --- |
| COc1cccc(Nc2ccc3c(c2)CN(Cc2cccc(C(=O)N(C)C4CCCCC4)c2)C(N)=N3)c1 | Criterion met |
| CCCC(=O)NCCN1Cc2cc(-c3ccccc3Cl)ccc2N=C1N | Criterion met |
| NC1=Nc2ccc(Oc3ccccc3)cc2CN1Cc1cccc(CNC(=O)C(F)(F)F)c1 | Criterion not met |
| NC1=Nc2ccc(-c3cccc(C(F)(F)F)c3)cc2CN1CCNC(=O)CC1CCCC1 | Criterion not met |
| COc1cccc(OC)c1Oc1ccc2c(c1)CN(CCC(=O)NC1C3CC4CC(C3)CC1C4)C(N)=N2 (stereo not shown) | Criterion not met |
| Cc1ccccc1-c1ccc2c(c1)CN(CCNC(=O)C1CCC1)C(N)=N2 | Criterion met |
| CN(C(=O)c1cccc(CN2Cc3cc(-c4ccc(C5CCCCC5)cc4)ccc3N=C2N)c1)C1CCCCC1 | Criterion not met |
| CN(C(=O)CCC(CO)N1Cc2cc(Oc3ccccc3)ccc2N=C1N)C1CCCCC1 (stereo not shown) | Criterion not met |
| NC1=Nc2ccc(Oc3ccccc3)cc2CN1CCNC(=O)c1ccc(-c2ccccc2)cc1 | Criterion not met |
| CC(C)N(C(=O)CCN1Cc2cc(Oc3ccccc3)ccc2N=C1N)C(C)C | Criterion not met |
| CN(C(=O)c1cccc(CN2Cc3cc(Oc4cccnc4)ccc3N=C2N)c1)C1CCCCC1 | Criterion not met |
| Cc1ccccc1-c1ccc2c(c1)CN(CCNC(=O)C13CC4CC(CC(C4)C1)C3)C(N)=N2 | Criterion met |
| CCCC(CCC)C(=O)N1CCCCC(N2Cc3cc(Oc4ccccc4)ccc3N=C2N)C1 (stereo not shown) | Criterion not met |
| COc1ccc(F)cc1-c1ccc2c(c1)CN(CCNC(=O)C1CCCCC1)C(N)=N2 | Criterion not met |
| CN(C(=O)c1cccc(CN2Cc3cc(Oc4ccccc4C(=O)N4CCCC4)ccc3N=C2N)c1)C1CCCCC1 | Criterion not met |
| CCC(c1cccc(C(=O)N(C)C2CCCCC2)c1)N1Cc2cc(-c3ccccc3OC)ccc2N=C1N (stereo not shown) | Criterion met |
